experiment: Pharmacokinetic study in mice (IV and PO); assay type: in vivo; details: PO (10 mg/kg) vs IV (2 mg/kg), male CD1 mice
F strictly less than 80% = t. Otherwise f.

Observe how each entry below is paired with its result.
C=CCn1c(=O)c2cnc(Nc3ccc(N4CCC(CN5CCC(c6cccc7c6n(C)c(=O)n7C6CCC(=O)NC6=O)CC5)CC4)cc3)nc2n1-c1cccc(C(C)(C)O)n1 (centres unmarked) [Compound 55] : t
C=CCn1c(=O)c2cnc(Nc3ccc(C4CCN(CC5CCN(c6cccc7c6n(C)c(=O)n7C6CCC(=O)NC6=O)CC5)CC4)cc3)nc2n1-c1cccc(C(C)(C)O)n1 (centres unmarked) [Compound 66] : t
C=CCn1c(=O)c2cnc(Nc3ccc(N4CCC(CN5CCN(c6ccc(NC7CCC(=O)NC7=O)cc6F)CC5)CC4)cc3)nc2n1-c1cccc(C(C)(C)O)n1 (centres unmarked) [Compound 71] : t

Could you please tell me whether F recorded for C=CCn1c(=O)c2cnc(Nc3ccc(N4CCN(CC5CCN(c6ccc(NC7CCC(=O)NC7=O)cc6F)CC5)CC4)cc3)nc2n1-c1ccc2c(n1)[C@@](O)(CC)CC2 (mixture of isomers) [Compound 110] is less than 80%?
f

----------
biological target: HiBiT tagged Wee1 (Homo sapiens); test: Wee1 protein degradation assay (HiBiT assay); assay type: cell-based; settings: engineered HT-1080 cells, 20 hours
assay-endpoint: DC50

Consider the reported DC50 for these compounds:
COc1ccc(C(=O)N2CCC(CN3CCN(Cc4ccc(Nc5ncc6c(=O)n(-c7c(Cl)cccc7Cl)c7nccn7c6n5)cc4)CC3)CC2)cc1N1CCC(=O)NC1=O [Compound 58] : > 1000 nM
C=CCn1c(=O)c2cnc(Nc3ccc4c(c3)CN(CC3CN(c5ccc6c(c5)C(=O)N(C5CCC(=O)NC5=O)C6=O)C3)CC4)nc2n1-c1cccc(C(C)(C)O)n1 (stereo not drawn) [Compound 6] : > 1000 nM

Item COc1ccc(C(=O)N2CCC3(CCN(Cc4ccc(Nc5ncc6c(=O)n(-c7c(Cl)cccc7Cl)c7nccn7c6n5)cc4)CC3)CC2)cc1N1CCC(=O)NC1=O [Compound 59] : provide DC50
> 1000 nM

----------
target: HiBiT tagged Wee1 (Homo sapiens, UniProt P30291); assay: Wee1 protein degradation assay (HiBiT assay); format: cell-based; conditions: engineered HT-1080 cells, 20 hours
Sequence (P30291 whole entry): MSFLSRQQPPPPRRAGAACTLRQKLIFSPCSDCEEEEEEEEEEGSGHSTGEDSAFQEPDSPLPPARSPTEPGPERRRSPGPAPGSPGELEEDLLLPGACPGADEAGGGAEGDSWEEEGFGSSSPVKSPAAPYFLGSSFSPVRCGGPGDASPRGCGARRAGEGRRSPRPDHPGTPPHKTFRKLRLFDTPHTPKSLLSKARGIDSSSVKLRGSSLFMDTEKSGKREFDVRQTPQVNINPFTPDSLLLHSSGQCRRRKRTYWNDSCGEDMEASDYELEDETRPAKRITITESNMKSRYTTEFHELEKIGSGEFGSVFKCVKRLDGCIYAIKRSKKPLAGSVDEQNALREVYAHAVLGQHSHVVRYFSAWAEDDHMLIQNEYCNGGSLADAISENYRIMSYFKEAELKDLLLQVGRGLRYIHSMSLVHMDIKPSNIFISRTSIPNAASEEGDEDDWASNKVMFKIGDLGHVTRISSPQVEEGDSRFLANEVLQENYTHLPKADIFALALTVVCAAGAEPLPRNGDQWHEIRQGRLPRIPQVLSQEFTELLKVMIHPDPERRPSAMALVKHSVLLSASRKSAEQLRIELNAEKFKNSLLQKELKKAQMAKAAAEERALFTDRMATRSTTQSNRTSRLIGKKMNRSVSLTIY
assay-endpoint: DC50

Consider the reported DC50 for these molecules:
C=CCn1c(=O)c2cnc(Nc3ccc(N4CCC(CN5CCC(c6cccc7c6n(C)c(=O)n7C6CCC(=O)NC6=O)CC5)CC4)cc3)nc2n1-c1ccc2c(n1)[C@@](O)(CC)CC2 (some centres unmarked) [Compound 54] : < 100 nM
C=CCn1c(=O)c2cnc(Nc3ccc(N4CCC(CN5CCC(c6cccc(NC7CCC(=O)NC7=O)c6)CC5)CC4)cc3)nc2n1-c1cccc(C(C)(C)O)n1 (centres unmarked) [Compound 145] : 100 to 1000 nM
C=CCn1c(=O)c2cnc(Nc3ccc(N4C[C@@H](C)N(CC5CCN(c6ccc(NC7CCC(=O)NC7=O)cc6F)CC5)[C@@H](C)C4)cc3)nc2n1-c1ccc2c(n1)[C@@](O)(CC)CC2 (some centres unmarked) [Compound 169] : < 100 nM
O=C1CCC(N2C(=O)c3ccc(N4CCC(CN5CCc6cc(Nc7ncc8c(=O)n(-c9c(Cl)cccc9Cl)c9nccn9c8n7)ccc6C5)CC4)cc3C2=O)C(=O)N1 (centres unmarked) [Compound 1] : > 1000 nM

Consider the record given below.
Item C=CCn1c(=O)c2cnc(Nc3ccc(N4CCC(N5CC6(CN(c7ccc(NC8CCC(=O)NC8=O)cc7F)C6)C5)CC4)cc3)nc2n1-c1ccc2c(n1)[C@@](O)(CC)CC2 (some centres unmarked) [Compound 154] : provide DC50
< 100 nM
